Each item that follows carries a reported Bliss excess.
- Test system: B-CPAP (Thyroid Gland Carcinoma)
- Measurement Protocol: Bliss excess, mean over the matrix (fraction); higher = more synergy
Observable: Bliss excess

- C=CCn1c(=O)c2cnc(Nc3ccc(N4CCN(C)CC4)cc3)nc2n1-c1cccc(C(C)(C)O)n1 [AZD1775] + C[C@@H]1COCCN1C2=NC(=NC(=C2)C3(CC3)[S@](=N)(=O)C)C4=C5C=CNC5=NC=C4 [AZD6738] (first compound max 1 µM, partner max 10 µM): 0.0499
- CN(C)CCCOc1ccc(-c2ccc3ncc4c(c3c2)n(C2CCOCC2)c(=O)n4C)cn1 [AZD0156] + CCN(CCO)CCCOc1ccc2c(Nc3cc(CC(=O)Nc4cccc(F)c4)[nH]n3)ncnc2c1 [AZD2811] (first compound max 1 µM, 7x7, partner max 1 µM): -0.0224

====

- Tested on: 42-MG-BA (Glioblastoma)
- Measurement Protocol: combination Emax (second highest fraction inhibited in the dose matrix, 72 h); higher = more inhibition; extreme values may be limits of the assay
Listing: combination Emax of selected molecules
Observable: combination Emax

- CN(CCO)CC[C@H](CSc1ccccc1)Nc1ccc(S(=O)(=O)NC(=O)c2ccc(N3CCC([C@@H](O)c4ccccc4-c4ccc(Cl)cc4)CC3)cc2)cc1S(=O)(=O)C(F)(F)F [AZD4320] + C=CCn1c(=O)c2cnc(Nc3ccc(N4CCN(C)CC4)cc3)nc2n1-c1cccc(C(C)(C)O)n1 [AZD1775] (first compound max 1 µM, partner max 1 µM): 0.293
- Cn1cnc2c(F)c(Nc3ccc(Br)cc3Cl)c(C(=O)NOCCO)cc21 [Selumetinib] + CCN(CCO)CCCOc1ccc2c(Nc3cc(CC(=O)Nc4cccc(F)c4)[nH]n3)ncnc2c1 [AZD2811] (first compound max 10 µM, 7x7, partner max 1 µM): 0.447
- Cc1c2c(nn1C)CSCc1cc(n(C)n1)CSc1cc(c3ccccc3c1)OCCCc1c(C(=O)O)n(C)c3c-2c(Cl)ccc13 [AZD5991] + Cc1cc2ncnn2cc1Nc1ncc2c(n1)n(C1CCOCC1)c(=O)n2C [AZD7648] (first compound max 1 µM, 7x7, partner max 10 µM): 0.988
- NC1(C(=O)N[C@@H](CCO)c2ccc(Cl)cc2)CCN(c2ncnc3[nH]ccc23)CC1 [Capivasertib] + Cn1cnc2c(F)c(Nc3ccc(Br)cc3Cl)c(C(=O)NOCCO)cc21 [Selumetinib] (first compound max 10 µM, 7x7, partner max 10 µM): 0.737
- NC1(C(=O)N[C@@H](CCO)c2ccc(Cl)cc2)CCN(c2ncnc3[nH]ccc23)CC1 [Capivasertib] + C[C@@H]1COCCN1C2=NC(=NC(=C2)C3(CC3)[S@](=N)(=O)C)C4=C5C=CNC5=NC=C4 [AZD6738] (first compound max 10 µM, 7x7, partner max 10 µM): 0.775
- CN(C)CCCOc1ccc(-c2ccc3ncc4c(c3c2)n(C2CCOCC2)c(=O)n4C)cn1 [AZD0156] + C=CCn1c(=O)c2cnc(Nc3ccc(N4CCN(C)CC4)cc3)nc2n1-c1cccc(C(C)(C)O)n1 [AZD1775] (first compound max 1 µM, partner max 1 µM): 0.29
- CCN(CCO)CCCOc1ccc2c(Nc3cc(CC(=O)Nc4cccc(F)c4)[nH]n3)ncnc2c1 [AZD2811] + C=CCn1c(=O)c2cnc(Nc3ccc(N4CCN(C)CC4)cc3)nc2n1-c1cccc(C(C)(C)O)n1 [AZD1775] (first compound max 1 µM, partner max 1 µM): 0.522

====

- Test system: CAL-148 (Breast Carcinoma)
- Measurement Protocol: combination Emax (second highest fraction inhibited in the dose matrix, 72 h); higher = more inhibition; extreme values may be limits of the assay
Threshold rule: combination Emax greater than or equal to 0.9 is true; below that, false.

* CN(CCO)CC[C@H](CSc1ccccc1)Nc1ccc(S(=O)(=O)NC(=O)c2ccc(N3CCC([C@@H](O)c4ccccc4-c4ccc(Cl)cc4)CC3)cc2)cc1S(=O)(=O)C(F)(F)F [AZD4320] + C=CCn1c(=O)c2cnc(Nc3ccc(N4CCN(C)CC4)cc3)nc2n1-c1cccc(C(C)(C)O)n1 [AZD1775] (first compound max 1 µM, partner max 1 µM) | true
* CN(CCO)CC[C@H](CSc1ccccc1)Nc1ccc(S(=O)(=O)NC(=O)c2ccc(N3CCC([C@@H](O)c4ccccc4-c4ccc(Cl)cc4)CC3)cc2)cc1S(=O)(=O)C(F)(F)F [AZD4320] + CC(=O)O[C@H]1C(=O)[C@@]2(C)[C@H]([C@H](OC(=O)c3ccccc3)[C@]3(O)C[C@H](OC(=O)[C@H](O)[C@@H](NC(=O)c4ccccc4)c4ccccc4)C(C)=C1C3(C)C)[C@]1(OC(C)=O)CO[C@@H]1C[C@@H]2O [Paclitaxel] (first compound max 1 µM, 7x7, partner max 3 µM) | true
* Cc1c2c(nn1C)CSCc1cc(n(C)n1)CSc1cc(c3ccccc3c1)OCCCc1c(C(=O)O)n(C)c3c-2c(Cl)ccc13 [AZD5991] + Cc1cc2ncnn2cc1Nc1ncc2c(n1)n(C1CCOCC1)c(=O)n2C [AZD7648] (first compound max 1 µM, 7x7, partner max 10 µM) | false
* CS(=O)(=O)CCNCc1ccc(-c2ccc3ncnc(Nc4ccc(OCc5cccc(F)c5)c(Cl)c4)c3c2)o1 [Lapatinib] + NC1(c2ccc(-c3nc4ccn5c(=O)[nH]nc5c4cc3-c3ccccc3)cc2)CCC1 [MK-2206] (first compound max 10 µM, 7x7, partner max 10 µM) | true
* CN(CCO)CC[C@H](CSc1ccccc1)Nc1ccc(S(=O)(=O)NC(=O)c2ccc(N3CCC([C@@H](O)c4ccccc4-c4ccc(Cl)cc4)CC3)cc2)cc1S(=O)(=O)C(F)(F)F [AZD4320] + CS(=O)(=O)CCNCc1ccc(-c2ccc3ncnc(Nc4ccc(OCc5cccc(F)c5)c(Cl)c4)c3c2)o1 [Lapatinib] (first compound max 1 µM, 7x7, partner max 10 µM) | true
* C[C@@H](c1ccc2nccn2c1)n1nnc2ncc(-c3cnn(C)c3)nc21 [Savolitinib] + Cc1c2c(nn1C)CSCc1cc(n(C)n1)CSc1cc(c3ccccc3c1)OCCCc1c(C(=O)O)n(C)c3c-2c(Cl)ccc13 [AZD5991] (first compound max 1 µM, 7x7, partner max 1 µM) | false

====

- System: Daoy (Other Solid Carcinomas)
- Measurement Protocol: Bliss excess, mean over the matrix (fraction); higher = more synergy
Examples of compounds with documented Bliss excess follow.
Observable: Bliss excess

- COc1nnc2ccc(N3CCC(c4ccc(OCCN5CCN(C)C(=O)[C@H]5C)cc4)CC3)nn12 [AZD5153] + CN(CC[C@H](CSC1=CC=CC=C1)NC2=C(C=C(C=C2)S(=O)(=O)NC(=O)C3=CC=C(C=C3)N4CCC(CC4)[C@H](C5=CC=CC=C5C6=CC=C(C=C6)Cl)O)S(=O)(=O)C(F)(F)F)CCO [AZD4320] (first compound max 1 µM, 7x7, partner max 1 µM): 0.113
- Cc1c2c(nn1C)CSCc1cc(n(C)n1)CSc1cc(c3ccccc3c1)OCCCc1c(C(=O)O)n(C)c3c-2c(Cl)ccc13 [AZD5991] + C1CN(CCC1(C(=O)N[C@@H](CCO)C2=CC=C(C=C2)Cl)N)C3=NC=NC4=C3C=CN4 [Capivasertib] (first compound max 1 µM, 7x7, partner max 3 µM): 0.0248
- COc1cc2ncnc(Nc3ccc(F)c(Cl)c3)c2cc1OCCCN1CCOCC1 [Gefitinib] + CC(C)n1c(=O)n(C)c2cnc3cc(F)c(-c4ccc(OCCCN5CCCCC5)nc4)cc3c21 [AZD1390] (first compound max 10 µM, 7x7, partner max 0.3 µM): -0.0373
- Cc1c2c(nn1C)CSCc1cc(n(C)n1)CSc1cc(c3ccccc3c1)OCCCc1c(C(=O)O)n(C)c3c-2c(Cl)ccc13 [AZD5991] + Cc1cc2ncnn2cc1Nc1ncc2c(n1)n(C1CCOCC1)c(=O)n2C [AZD7648] (first compound max 1 µM, 7x7, partner max 10 µM): -0.0069
- Cc1c2c(nn1C)CSCc1cc(n(C)n1)CSc1cc(c3ccccc3c1)OCCCc1c(C(=O)O)n(C)c3c-2c(Cl)ccc13 [AZD5991] + C=CCn1c(=O)c2cnc(Nc3ccc(N4CCN(C)CC4)cc3)nc2n1-c1cccc(C(C)(C)O)n1 [AZD1775] (first compound max 1 µM, partner max 1 µM): 0.0375
- NC1(C(=O)N[C@@H](CCO)c2ccc(Cl)cc2)CCN(c2ncnc3[nH]ccc23)CC1 [Capivasertib] + Cn1cnc2c(F)c(Nc3ccc(Br)cc3Cl)c(C(=O)NOCCO)cc21 [Selumetinib] (first compound max 10 µM, 7x7, partner max 10 µM): 0.0225
- C[C@@H](c1ccc2nccn2c1)n1nnc2ncc(-c3cnn(C)c3)nc21 [Savolitinib] + Cc1c2c(nn1C)CSCc1cc(n(C)n1)CSc1cc(c3ccccc3c1)OCCCc1c(C(=O)O)n(C)c3c-2c(Cl)ccc13 [AZD5991] (first compound max 1 µM, 7x7, partner max 1 µM): -0.0141
- CC1(C)CCC(CN2CCN(c3ccc(C(=O)NS(=O)(=O)c4ccc(NCC5CCOCC5)c([N+](=O)[O-])c4)c(Oc4cnc5[nH]ccc5c4)c3)CC2)=C(c2ccc(Cl)cc2)C1 [Venetoclax] + C1CN(CCC1(C(=O)N[C@@H](CCO)C2=CC=C(C=C2)Cl)N)C3=NC=NC4=C3C=CN4 [Capivasertib] (first compound max 1 µM, 7x7, partner max 3 µM): 0.0117
- NC1(C(=O)N[C@@H](CCO)c2ccc(Cl)cc2)CCN(c2ncnc3[nH]ccc23)CC1 [Capivasertib] + C[C@@H]1COCCN1C2=NC(=NC(=C2)C3(CC3)[S@](=N)(=O)C)C4=C5C=CNC5=NC=C4 [AZD6738] (first compound max 10 µM, 7x7, partner max 10 µM): -0.0462
- CC1(C)CCC(CN2CCN(c3ccc(C(=O)NS(=O)(=O)c4ccc(NCC5CCOCC5)c([N+](=O)[O-])c4)c(Oc4cnc5[nH]ccc5c4)c3)CC2)=C(c2ccc(Cl)cc2)C1 [Venetoclax] + C=CCn1c(=O)c2cnc(Nc3ccc(N4CCN(C)CC4)cc3)nc2n1-c1cccc(C(C)(C)O)n1 [AZD1775] (first compound max 1 µM, partner max 1 µM): -0.0683
- CC1(C)CCC(CN2CCN(c3ccc(C(=O)NS(=O)(=O)c4ccc(NCC5CCOCC5)c([N+](=O)[O-])c4)c(Oc4cnc5[nH]ccc5c4)c3)CC2)=C(c2ccc(Cl)cc2)C1 [Venetoclax] + COc1cc(Nc2ncc3c(n2)-c2ccc(Cl)cc2C(c2c(F)cccc2OC)=NC3)ccc1C(=O)O [Alisertib] (first compound max 1 µM, 7x7, partner max 10 µM): 0.105
- NC1(C(=O)N[C@@H](CCO)c2ccc(Cl)cc2)CCN(c2ncnc3[nH]ccc23)CC1 [Capivasertib] + CCN(CCO)CCCOc1ccc2c(Nc3cc(CC(=O)Nc4cccc(F)c4)[nH]n3)ncnc2c1 [AZD2811] (first compound max 10 µM, 7x7, partner max 1 µM): 0.0146
- Cc1cc2ncnn2cc1Nc1ncc2c(n1)n(C1CCOCC1)c(=O)n2C [AZD7648] + CCN(CCO)CCCOc1ccc2c(Nc3cc(CC(=O)Nc4cccc(F)c4)[nH]n3)ncnc2c1 [AZD2811] (first compound max 10 µM, 7x7, partner max 1 µM): 0.0083
